- Tested on: Wnt5a (protein binding on small-molecule microarray)
- procedure.details: small molecules binding Wnt5a protein – biophysical, small-molecule microarray, 635/667 nm fluorescence, primary screen (AID 1142);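 further: fluorescence read at 667 nm with signal to noise per printed feature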
- experimental.context: 635 nm fluorescence, higher = more signal
parameter: composite z-score

{"molecule": "CCCc1cc2c(n1CCc1ccc(Cl)cc1)C(C)C1CN(C(=O)c3ccccc3)C(C)(C(=O)OC)C21 (stereo not given)", "parameter": "composite z-score", "val": 0.689}
{"molecule": "CN(C)CCCCNC(=O)[C@H]1C[C@H]2C(=O)NCC(=O)N2[C@H]1c1ccc(O)cc1", "parameter": "composite z-score", "val": -0.311}
{"molecule": "CCOC(=O)C1=CC[C@@H](c2ccc(OC)cc2)N(S(=O)(=O)c2ccc(C)cc2)[C@H]1c1ccc(C)cc1", "parameter": "composite z-score", "val": 0.151}
{"molecule": "C=CC[C@]1(C(=O)NCC(O)CO)COC(c2ccc(OCCCO)cc2)=N1 (stereo not given in full)", "parameter": "composite z-score", "val": 0.359}
{"molecule": "CCOC(=O)C1=CC[C@@H](c2ccccc2)N(S(=O)(=O)c2ccc(C)cc2)[C@H]1c1ccccc1I", "parameter": "composite z-score", "val": 0.296}
